Values compiled from patent US11634384B2.

assay method text: physchem
Format: physicochemical
condition parameters: pH 7.4, Intramolecular Cyclization-Release Half-life (T1/2)
measured attribute: half-life

IN: State the recorded half-life for this entry: CNCC1CCCCN1C(=O)Oc1ccc(CNC(=O)CCCC/C=C/C(C)C)cc1OC (stereo not shown) [Compound 7]
OUT: ~4.4 min

----------
Please go through the items and note down their solubility at 24 h.
assay method text: Solubility assay in DI water
Format: physicochemical
condition parameters: thermodynamic from solid; HCl salts; incubated at 50 or 100 mg/mL in DI water, shaking 24 hours; supernatant quantified

Below is a list of molecules. For each, state its recorded solubility at 24 h.
1. COc1cc(CNC(=O)CCCC/C=C/C(C)C)ccc1OC(=O)N(CCN)CCN
2. CNCC1CCCCN1C(=O)Oc1ccc(CNC(=O)CCCC/C=C/C(C)C)cc1OC (stereo not drawn)
3. COc1cc(CNC(=O)CCCC/C=C/C(C)C)ccc1OC(=O)N1CCCCC1CN (stereo not drawn)

OUT:
1: > 100 mg/mL; 2: > 50 mg/mL; 3: > 100 mg/mL

----------
Please go through the items and note down their half-life.
assay method text: In vitro (pH stability) assay: intramolecular cyclization-release of capsaicin
Format: physicochemical
condition parameters: pH 7.4, pH = ~7.4 (0.3M aqueous tris buffer), 20° C.; read-out: Intramolecular Cyclization-Release Half-life (T1/2)

[
  {
    "compound": "COc1cc(CNC(=O)CCCC/C=C/C(C)C)ccc1OC(=O)N1CCCC1CN (stereo not drawn) [Compound 4]",
    "val": "~295 h"
  }
]

Below is a list of compounds. For each, state its recorded half-life.
1. COc1cc(CNC(=O)CCCC/C=C/C(C)C)ccc1OC(=O)N(C)CCCN [Compound 6]
2. CNCCN(C)C(=O)Oc1ccc(CNC(=O)CCCC/C=C/C(C)C)cc1OC [Compound 2]
3. COc1cc(CNC(=O)CCCC/C=C/C(C)C)ccc1OC(=O)N(CCN)CCN [Compound 5]
4. COc1cc(CNC(=O)CCCC/C=C/C(C)C)ccc1OC(=O)N(C)CCN [Compound 1]
5. COc1cc(CNC(=O)CCCC/C=C/C(C)C)ccc1OC(=O)N1CCCCC1CN (stereo not drawn) [Compound 3]

OUT:
["~739 h", "~3.2 h", "~1.18 h", "~24.1 h", "~0.527 h"]

----------
assay method text: In vitro (pH stability) assay: intramolecular cyclization-release of capsaicin
Format: physicochemical
condition parameters: pH 7.4, pH = ~7.4 (1.0M aqueous tris buffer), 37° C.; read-out: Intramolecular Cyclization-Release Half-life (T1/2)
Please go through the items and note down their half-life.

[
  {
    "molecule": "COc1cc(CNC(=O)CCCC/C=C/C(C)C)ccc1OC(=O)N1CCCCC1CN (centres unmarked)",
    "measured attribute": "half-life",
    "val": "~12.9 min"
  }
]

Continue with the molecule presented below.
IN: State the recorded half-life for this entry: COc1cc(CNC(=O)CCCC/C=C/C(C)C)ccc1OC(=O)N(CCN)CCN
OUT: ~24.7 min
